Data provenance: patent US8278343B2

Target: recombinant human EP-2 receptor (Homo sapiens)
Construct: stably transfected with full length cDNA encoding human Prostaglandin E2
Sequence (P43116 whole entry): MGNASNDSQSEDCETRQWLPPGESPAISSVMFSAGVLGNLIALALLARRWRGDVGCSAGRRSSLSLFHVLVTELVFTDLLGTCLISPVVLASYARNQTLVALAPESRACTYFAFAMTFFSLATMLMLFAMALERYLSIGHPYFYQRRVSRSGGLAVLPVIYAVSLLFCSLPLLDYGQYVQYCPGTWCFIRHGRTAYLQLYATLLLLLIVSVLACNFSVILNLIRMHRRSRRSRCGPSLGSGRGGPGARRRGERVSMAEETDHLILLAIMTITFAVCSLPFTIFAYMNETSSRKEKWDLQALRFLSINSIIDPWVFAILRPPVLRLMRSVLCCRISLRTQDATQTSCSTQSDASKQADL
Assay: In vitro antagonist potency against recombinant human prostaglandin E2 (EP-2) receptor in CHO cells (cAMP, Protocol 1)
Conditions: CHO cells expressing recombinant human EP-2 receptor, stimulated with 5 nM PGE2; cAMP readout; Ki by Cheng-Prusoff equation; read-out: EP2 Ki
Outcome Measure: pKi
Interpret pKi as the negative base-10 log of the concentration measured in mol/L.

Take a look at these entries with their results.
1. CCOc1ccccc1C(=O)N1CCC(COc2cnc(-c3ccc(Cl)cc3)nc2)(C(=O)O)C1 (single isomer, unassigned) [Example 57] : 7.53
2. Cc1ccc(OC(=O)N2CCC(COc3ccc(-c4ccc(F)cc4)cc3)(C(=O)O)C2)cc1 (single isomer, unassigned) [Example 86] : 8.27
3. O=C(Oc1ccc(F)cc1)N1CCC(COc2ccc(-c3ccc(F)cc3)cc2)(C(=O)O)C1 (single isomer, unassigned) [Example 91] : 7.43
4. O=C(c1ccc(F)cc1)N1CCC(COc2ccc(-c3ncc(Cl)cn3)cc2)(C(=O)O)C1 (single isomer, unassigned) [Example 15] : 7.07
5. O=C(Nc1ccccc1F)N1CCC(COc2ccc(-c3ccc(F)cc3)cc2)(C(=O)O)C1 (single isomer, unassigned) [Example 103] : 8.42

Which pKi is listed for O=C(c1ccc(Cl)cc1)N1CCC(COc2cnc(-c3ccc(Cl)cc3)cn2)(C(=O)O)C1 (single isomer, unassigned) [Example 35] ?
6.98

Please give the measured pKi for this compound: COc1ccccc1C(=O)N1CCC(COc2ccc(-c3ncc(Cl)cn3)cc2)(C(=O)O)C1 (single isomer, unassigned) [Example 72]
7.59

Look at this compound and give its reported pKi. O=C(c1ccc(Cl)cc1)N1CCC(COc2ccc(-c3ccc(Cl)cc3)nc2)(C(=O)O)C1 (single isomer, unassigned) [Example 32]
9.13

Any idea what pKi was measured for COc1ccc(C(=O)N2CCC(COc3ccc(-c4ccc(C#N)cc4)cc3)(C(=O)O)C2)cc1 (single isomer, unassigned) ?
9.20

Field request: pKi | item: O=C(c1ccc(F)cc1)N1CCC(COc2ccc(-c3ccc(F)cc3)cc2)(C(=O)O)C1 (single isomer, unassigned) [Example 18]
7.76

For the compound O=C(c1ccc(Cl)cc1)N1CCC(COc2ccc(-c3ncc(Cl)cn3)cc2)(C(=O)O)C1 (single isomer, unassigned) [Example 30] , what pKi is on record?
9.34

Name the recorded pKi for COc1ccc(OC(=O)N2CCC(COc3ccc(-c4ccc(F)cc4)cc3)(C(=O)O)C2)cc1 (single isomer, unassigned) [Example 93] .
6.78

I have this compound here, CCOc1ccccc1C(=O)N1CCC(COc2ccc(-c3ncc(Cl)cn3)cc2)(C(=O)O)C1 (single isomer, unassigned) [Example 55] , and I need its recorded pKi.
7.54
